- target.entity: EP4 Gs-coupled receptor (Homo sapiens, UniProt P35408)
- Sequence (P35408 whole entry): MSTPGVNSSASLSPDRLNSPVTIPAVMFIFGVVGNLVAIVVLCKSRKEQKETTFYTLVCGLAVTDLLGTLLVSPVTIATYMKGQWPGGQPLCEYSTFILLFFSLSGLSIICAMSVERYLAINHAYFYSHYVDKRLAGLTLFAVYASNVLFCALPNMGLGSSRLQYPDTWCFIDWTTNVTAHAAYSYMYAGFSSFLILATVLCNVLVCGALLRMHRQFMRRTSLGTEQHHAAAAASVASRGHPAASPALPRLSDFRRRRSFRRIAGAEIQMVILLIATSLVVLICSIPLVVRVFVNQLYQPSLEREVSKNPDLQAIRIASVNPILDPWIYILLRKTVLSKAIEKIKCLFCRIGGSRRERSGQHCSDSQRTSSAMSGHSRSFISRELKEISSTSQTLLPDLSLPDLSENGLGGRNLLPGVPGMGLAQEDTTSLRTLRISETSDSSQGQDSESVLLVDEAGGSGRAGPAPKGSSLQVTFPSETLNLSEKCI
- experimental.protocol: cAMP HTRF assay in 293T cells overexpressing EP4
- experimental.setup: read-out: best-fit IC50, reduction of PGE2-induced recruitment of cAMP
readout.kind: IC50

According to the records, this molecule CCCCCCCCC(=CCCCCCCCC(=O)O)[N+](=O)[O-] displays IC50 of 2800 nM
